FYI, the data here is from ChEMBL document CHEMBL5665443.

Molecular target: Endonuclease 8-like 1 (Homo sapiens) (UniProt Q96FI4);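 note: fluorescence at 594 nm from quenched duplex DNA oligonucleotides released by NEIL1 cleavage and strand separation, reported as reduction of this enzyme activity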
Sequence (Q96FI4 whole entry): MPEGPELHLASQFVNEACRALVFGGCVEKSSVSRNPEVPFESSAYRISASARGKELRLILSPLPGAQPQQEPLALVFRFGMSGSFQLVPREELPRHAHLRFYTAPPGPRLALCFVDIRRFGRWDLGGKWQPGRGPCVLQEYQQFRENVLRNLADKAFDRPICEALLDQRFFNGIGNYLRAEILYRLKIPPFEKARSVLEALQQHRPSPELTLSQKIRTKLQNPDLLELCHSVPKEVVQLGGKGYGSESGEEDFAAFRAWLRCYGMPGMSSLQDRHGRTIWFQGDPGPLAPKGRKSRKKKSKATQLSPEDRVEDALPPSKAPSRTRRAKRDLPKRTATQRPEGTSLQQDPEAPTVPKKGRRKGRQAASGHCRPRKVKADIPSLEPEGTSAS
Details: Compound Concentration 10.0 uM, Hit No
Description: Inhibition of NEIL1 by quantifying inhibition of NEIL1-mediated cleavage and dissociation of quenched duplex DNA oligonucleotides, measured as fluorescence at 594 nm.
// reported inhibition for each item listed
Form entry: value (%) — number only.

>>> print(df.to_string())
                                   compound                         system_under_test  assay_result
0  CCc1ccc(N(CC(C)C)S(=O)(=O)c2ccc(OCC3CCOCC3)c(CO)c2)cc1  Endonuclease 8-like 1 (Homo sapiens) (UniProt Q96FI4)         -7.41
1       N#Cc1c(O)nc(SCc2cccc(F)c2F)nc1C1CC1  Endonuclease 8-like 1 (Homo sapiens) (UniProt Q96FI4)         -3.76
2  COCC(=O)NC/C=C/c1ccc2ncnc(Nc3ccc(Oc4ccc(C)nc4)c(C)c3)c2c1  Endonuclease 8-like 1 (Homo sapiens) (UniProt Q96FI4)         -8.05
3  Cc1nnn(-c2ccc(-c3ccc(C4(C(=O)O)CC4)cc3)cc2)c1NC(=O)O[C@H](C)c1ccccc1  Endonuclease 8-like 1 (Homo sapiens) (UniProt Q96FI4)         -1.39
4  Cn1cnc2c(F)c(Nc3ccc(Br)cc3Cl)c(C(=O)NOCCO)cc21  Endonuclease 8-like 1 (Homo sapiens) (UniProt Q96FI4)          11.5

# lookup: inhibition of Cc1c(C(=O)O)cc(-c2ccc(C3CCNCC3)cc2)c2ccc(-c3ccc(C(F)(F)F)cc3)cc12
-6.8

Param item = CCN(CC)CCCCC1CCN(CC(=O)N2c3ccccc3C(=O)Nc3cccnc32)CC1 ; retrieve measured inhibition.
-7.47

Given the entry CCc1nn(CCCN2CCN(c3cccc(Cl)c3)CC2)c(=O)n1CCOc1ccccc1 , report its measured inhibition.
-3.02

Item Cc1cccc([C@H]2CC[C@@H](N3CCN(c4cccnc4)CC3)CC2)c1 (mixture of isomers) has what recorded inhibition?
1.34

====

Attribute: inhibition
Target: Single-strand selective monofunctional uracil DNA glycosylase (Homo sapiens) (UniProt Q53HV7);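 note: enzymatic SMUG1 assay coupled with APE1, reading fluorescence at 594 nm released when a quenched double-stranded DNA oligonucleotide substrate is cleaved and separated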
Sequence (Q53HV7 whole entry): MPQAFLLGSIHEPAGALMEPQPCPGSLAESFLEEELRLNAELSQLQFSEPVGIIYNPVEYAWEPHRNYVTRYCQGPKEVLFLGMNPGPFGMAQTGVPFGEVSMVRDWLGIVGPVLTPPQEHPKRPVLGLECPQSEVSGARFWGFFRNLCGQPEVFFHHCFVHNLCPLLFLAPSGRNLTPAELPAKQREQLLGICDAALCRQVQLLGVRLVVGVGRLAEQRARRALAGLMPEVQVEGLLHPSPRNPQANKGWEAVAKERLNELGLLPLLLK
Details: Compound Concentration 1.0 uM, Hit No
Description: Inhibition of SMUG1 by quantifying inhibition of SMUG1-mediated cleavage and dissociation of quenched duplex DNA oligonucleotides, measured as fluorescence at 594 nm. To generate a functional strand incision and increase turn-over this assay is coupled to APE1.
Return type: number; implicit unit %.

In the examples that follow, each entry is paired with its recorded inhibition.
                           substance_smiles  measured_endpoint  unit_spec  assay_result
0  COc1cc(Nc2ncc3c(n2)-c2ccc(Cl)cc2C(c2c(F)cccc2OC)=NC3)ccc1C(=O)O         inhibition          %          19.5
1  CCOc1cc2ncc(C#N)c(Nc3ccc(OCc4cccc(F)c4)c(Cl)c3)c2cc1NC(=O)/C=C/CN(C)C         inhibition          %          11.5
2  O=C(O)[C@H]1[C@H](Cn2nnc3ccccc3c2=O)CC[C@@H]1C(=O)c1ccc(OCCC2CCOCC2)cc1         inhibition          %            17
3  CC(C)(C)c1cc(NC(=O)Nc2ccc(-c3cn4c(n3)sc3cc(OCCN5CCOCC5)ccc34)cc2)no1         inhibition          %          19.8
4  Cc1cc(NC(=O)c2cccc(S(F)(F)(F)(F)F)c2)cc(-n2ccn3nc(-c4cccnc4)cc23)c1         inhibition          %          19.3
5  O=C(Cc1ccccc1)Nc1nnc(N2CC[C@@H]3[C@H]2CN3c2cccnn2)s1         inhibition          %          9.42

Please look up its inhibition: C[C@H](NC(=O)c1cn(C2(C#N)CC2)cn1)C(=O)Nc1nc(-c2cccc(-c3ccn(C)n3)c2)cs1
3.85

====

Documented inhibition across a set of compounds
Molecular target: Uracil-DNA glycosylase (Homo sapiens) (UniProt P13051);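 note: UNG excision on a quenched double-stranded DNA oligo probe, with APE1 added for strand incision and turnover, read as fluorescence at 594 nm as strands separate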
Sequence (P13051 whole entry): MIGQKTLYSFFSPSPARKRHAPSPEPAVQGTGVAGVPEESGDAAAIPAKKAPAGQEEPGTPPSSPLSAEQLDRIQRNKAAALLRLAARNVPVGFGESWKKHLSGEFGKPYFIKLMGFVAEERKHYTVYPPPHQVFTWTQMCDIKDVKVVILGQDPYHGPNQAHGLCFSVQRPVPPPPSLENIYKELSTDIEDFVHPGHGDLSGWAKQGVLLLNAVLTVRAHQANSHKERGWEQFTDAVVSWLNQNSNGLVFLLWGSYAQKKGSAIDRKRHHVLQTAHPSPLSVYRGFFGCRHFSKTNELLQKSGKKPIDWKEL
Details: Compound Concentration 10.0 uM, Hit No
Description: Inhibition of UNG by quantifying inhibition of UNG-mediated cleavage and dissociation of quenched duplex DNA oligonucleotides, measured as fluorescence at 594 nm. To generate a functional strand incision and increase turn-over this assay is coupled to APE1.
Answer format: numeric, % implied, no suffix.

Record excerpt, results attached:
>>> print(df.to_string())
                                   compound                         system_under_test  assay_result
0  CC(C)c1ccc(CC(=O)N[C@H](C)c2ccc(OCC(F)(F)F)cn2)cc1  Uracil-DNA glycosylase (Homo sapiens) (UniProt P13051)        -0.689
1  C[C@H](c1ccc(F)cc1)N(Cc1cccc(C(=O)O)c1)C(=O)c1cnc2ccccc2c1  Uracil-DNA glycosylase (Homo sapiens) (UniProt P13051)          1.51
2  NCCc1cn(S(=O)(=O)c2c(Cl)nc3sccn23)c2ccccc12  Uracil-DNA glycosylase (Homo sapiens) (UniProt P13051)         -2.77
3  COC(=O)C1=C(C)NC(C)=C(C(=O)OCCCN2CCC(c3ccccc3)(c3ccccc3)CC2)[C@H]1c1cccc([N+](=O)[O-])c1  Uracil-DNA glycosylase (Homo sapiens) (UniProt P13051)         -9.34
4  FC(F)(F)c1ccc(Nc2ncnc3cc(-c4ncccc4C(F)(F)F)ccc23)cc1  Uracil-DNA glycosylase (Homo sapiens) (UniProt P13051)          1.01

Consider the compound CC(C)Cc1ccc([C@@H](C)C(=O)NS(C)(=O)=O)cc1 and give its measured inhibition.
-7.7

Quick check: inhibition of Cc1nn(C)c2nc(NNC(=O)Nc3cc(Cl)nc(Cl)c3)cc(C(C)C)c12 ?
-4.71

Recorded inhibition for CCCCC(=O)N(Cc1ccc(-c2ccccc2C(=O)O)cc1)c1ccccc1 , please?
-5.18

Reported inhibition for Cn1ncnc1COc1nn2c(-c3cc(F)ccc3F)nnc2cc1C(C)(C)C : what is it?
-5.8

Which inhibition value belongs to CCC(C)(C)/N=C(\NC#N)Nc1cccnc1 ?
-3.3

Suppose we examine the compound Cn1c(SCc2ccc(C(C)(C)C)cc2)nc(N)cc1=O ; what inhibition value has been reported?
-6.37

// query inhibition value for entry C[C@H](CCC(=O)O)[C@H]1CC[C@H]2[C@@H]3CC[C@@H]4C[C@H](O)CC[C@]4(C)[C@H]3CC[C@]12C
-8.43

Fill in the blank: the reported inhibition of CC[C@H]1[C@@H](O)[C@@H]2[C@H](CC[C@]3(C)[C@@H]([C@H](C)CCC(=O)O)CC[C@@H]23)[C@@]2(C)CC[C@@H](O)C[C@@H]12 is ____.
5.49

Requested field: inhibition. Item: CN1CCN(C(=O)c2ccc3cc2OCCOCCNc2ccn4ncc-3c4n2)CC1
1.81

Query: inhibition; subject: COc1ccc(/C=C/CCCCOc2ccc(C(=O)c3cccc(C(=O)O)c3)cc2CCC(=O)O)cc1
-7.57

Could you share which inhibition value was measured for C[C@@H]1CN(c2nccc(Nc3ccc4c(c3)n(CCC(C)(C)O)c(=O)n4C)n2)C[C@H](C)C1(F)F ?
5.07

Could you share which inhibition value was measured for O=C(N[C@H](Cc1ccc(Cl)cc1)C(=O)N1CCC(Cn2cncn2)(C2CCCCC2)CC1)[C@H]1Cc2ccccc2CN1 ?
-1.71

Tell me the measured inhibition of CN1CCN(c2ccc(/C=C(\C#N)c3ccccc3Br)cc2)CC1 , please.
4.48

Item under review: Cc1nccn1CC1CCc2c(c3ccccc3n2C)C1=O (centres undefined) . Reported inhibition?
-9.34

====

Target: Endonuclease 8-like 2 (Homo sapiens) (UniProt Q969S2);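 note: fluorescence at 594 nm reports NEIL2 cutting and release of a quenched double-stranded DNA oligo substrate, reduced signal read as inhibition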
Sequence (whole entry): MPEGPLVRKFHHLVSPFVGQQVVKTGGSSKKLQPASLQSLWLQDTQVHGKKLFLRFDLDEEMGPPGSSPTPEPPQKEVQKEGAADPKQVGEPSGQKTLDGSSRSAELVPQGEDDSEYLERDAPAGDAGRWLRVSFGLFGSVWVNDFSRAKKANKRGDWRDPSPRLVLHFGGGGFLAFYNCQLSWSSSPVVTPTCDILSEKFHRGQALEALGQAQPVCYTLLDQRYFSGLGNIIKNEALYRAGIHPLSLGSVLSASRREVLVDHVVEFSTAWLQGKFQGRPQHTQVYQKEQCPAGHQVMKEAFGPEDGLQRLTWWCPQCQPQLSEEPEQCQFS
Conditions: Compound Concentration 1.0 uM, Hit No
Description: Inhibition of NEIL2 by quantifying inhibition of NEIL2-mediated cleavage and dissociation of quenched duplex DNA oligonucleotides, measured as fluorescence at 594 nm.
Measured endpoint: inhibition

Check out these entries, answers already filled in.
>>> df
                           substance_smiles  assay_result
0  CCCOc1ccc([C@H]2[C@H](C(=O)O)[C@@H](c3ccc4c(c3)OCO4)CN2CC(=O)Nc2c(CC)cccc2CC)cc1        0.276%
1  CNC(=O)Nc1ccc2c(c1)[C@@]1(CC2)OC(=O)N(CC(=O)N(Cc2ccc(F)cc2)[C@@H](C)C(F)(F)F)C1=O        -2.53%
2  CC(=O)Nc1cccc(-n2c(=O)n(C3CC3)c(=O)c3c(Nc4ccc(I)cc4F)n(C)c(=O)c(C)c32)c1         1.85%

// switching to the query compound
Could you tell me which inhibition is on file for Cc1cc(C)c(-n2ccn3nc(-c4cccnc4)cc23)cc1NC(=O)c1cc(C#N)cc(S(F)(F)(F)(F)F)c1 ?
-7.9%
